# Kd listing for each entry below
Target: T1, ctSqt1.52C-(His)6 (Chaetomium thermophilum)
T1 chain: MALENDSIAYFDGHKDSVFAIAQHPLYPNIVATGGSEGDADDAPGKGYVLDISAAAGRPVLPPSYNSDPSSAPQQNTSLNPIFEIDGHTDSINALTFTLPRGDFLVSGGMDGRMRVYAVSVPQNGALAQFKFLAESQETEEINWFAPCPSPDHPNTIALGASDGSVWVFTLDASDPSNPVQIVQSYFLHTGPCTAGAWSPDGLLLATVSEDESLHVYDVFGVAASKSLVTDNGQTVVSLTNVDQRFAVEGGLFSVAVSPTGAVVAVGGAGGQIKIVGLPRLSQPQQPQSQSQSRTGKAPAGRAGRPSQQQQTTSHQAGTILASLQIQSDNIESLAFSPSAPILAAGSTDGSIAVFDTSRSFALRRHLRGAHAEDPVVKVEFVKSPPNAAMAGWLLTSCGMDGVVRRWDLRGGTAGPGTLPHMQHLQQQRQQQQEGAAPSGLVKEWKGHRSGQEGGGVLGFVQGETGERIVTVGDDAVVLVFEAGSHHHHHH
Assay: ITC; 200 μl ctSqt1.52C (10 μM) in the cell, 2 μl injections of 100 μM peptide, 25 °C; 20 mM HEPES–NaOH (pH 7.5), 200 mM NaCl, 20 mM KCl, 20 mM MgCl2; One Set of Sites model; approximate Kd
State the answer as a number, implicitly in nM.

MARRPARCYRYCKNKPYPKS [ctRpl10(1–20) peptide] :: 442

Consider the record given below.
Fill blank: measured Kd of the binder ARRPARCYRYCKNKPYPKS [ctRpl10(2–20) peptide] is ____.
35
